These entries and their values trace back to patent US20240116985A1.

Assignment: determine reported IC50 for the given compounds.
Biological target: full-length beta-Catenin (Uniprot ID P35222) (Homo sapiens)
Construct: 10 nM full-length beta-Catenin (Uniprot ID P35222)
Sequence (P35222 1-781): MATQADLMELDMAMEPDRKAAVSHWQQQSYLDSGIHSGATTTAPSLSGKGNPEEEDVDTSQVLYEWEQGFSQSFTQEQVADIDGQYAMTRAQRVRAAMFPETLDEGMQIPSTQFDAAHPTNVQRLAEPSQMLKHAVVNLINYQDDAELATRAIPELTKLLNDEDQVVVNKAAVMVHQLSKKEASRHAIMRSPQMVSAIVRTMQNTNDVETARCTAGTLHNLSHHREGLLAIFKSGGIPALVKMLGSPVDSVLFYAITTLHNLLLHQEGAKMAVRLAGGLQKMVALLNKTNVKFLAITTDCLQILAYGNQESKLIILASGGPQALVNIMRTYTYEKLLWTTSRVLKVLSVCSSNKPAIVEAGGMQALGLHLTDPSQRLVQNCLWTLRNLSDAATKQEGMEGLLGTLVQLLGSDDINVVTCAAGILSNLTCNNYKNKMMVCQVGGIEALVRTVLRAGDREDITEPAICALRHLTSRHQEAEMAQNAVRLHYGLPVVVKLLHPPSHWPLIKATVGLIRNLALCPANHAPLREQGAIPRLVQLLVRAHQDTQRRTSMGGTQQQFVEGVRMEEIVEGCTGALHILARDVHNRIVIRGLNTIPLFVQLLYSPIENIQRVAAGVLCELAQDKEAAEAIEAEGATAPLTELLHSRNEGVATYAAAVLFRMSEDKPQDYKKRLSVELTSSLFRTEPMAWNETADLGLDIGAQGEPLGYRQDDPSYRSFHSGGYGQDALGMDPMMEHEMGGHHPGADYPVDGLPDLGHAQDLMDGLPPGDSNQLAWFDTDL
Assay: Fluorescence polarization IC50 (beta-catenin / 5FAM-TCF4 10-53 competition)
Format: binding
Details: fluorescence polarization, beta-catenin; read-out: FP EC50
Record the value in nM, omitting the unit from your answer.

Memo: CC(=O)N1CCC[C@]12CC=CCCCC1(CCCC=CCCCOC(=O)N3CC[C@@](C(=O)N[C@@H](Cc4ccsc4)C(=O)N[C@@H](Cc4csc5ccccc45)C(=O)N[C@@H](CO)C(N)=O)(C3)NC(=O)[C@H](CC(C)C)NC(=O)[C@H](Cc3ccccc3)NC(=O)[C@H](C)NC(=O)[C@H](C)NC(=O)[C@H](Cc3cccc(C(=O)O)c3)NC(=O)[C@H](CC(=O)O)NC1=O)NC(=O)[C@H](CC(C)(C)C)NC(=O)[C@H](CC(=O)O)NC2=O (some centres unmarked) [I-987] , reported IC50: 112

Memo: CC(=O)N1CCC[C@]12CC=CCCCC1(CCCC=CCCCOC(=O)N3CC[C@@](C(=O)N[C@@H](Cc4ccsc4)C(=O)N[C@@H](Cc4csc5ccccc45)C(=O)N[C@@H](CCC(N)=O)C(N)=O)(C3)NC(=O)[C@H](CC(N)=O)NC(=O)[C@H](Cc3ccccc3)NC(=O)[C@H](C)NC(=O)[C@H](C)NC(=O)[C@H](Cc3cccc(C(=O)O)c3)NC(=O)[C@H](CC(=O)O)NC1=O)NC(=O)[C@H](CC(C)(C)C)NC(=O)[C@H](CC(=O)O)NC2=O (some centres unmarked) [I-976] , reported IC50: 399
